# target_system: human PD-L1 expressed on cell surface (human, UniProt Q9NZQ7 19-290)
# Sequence (Q9NZQ7 19-290 limits assumed): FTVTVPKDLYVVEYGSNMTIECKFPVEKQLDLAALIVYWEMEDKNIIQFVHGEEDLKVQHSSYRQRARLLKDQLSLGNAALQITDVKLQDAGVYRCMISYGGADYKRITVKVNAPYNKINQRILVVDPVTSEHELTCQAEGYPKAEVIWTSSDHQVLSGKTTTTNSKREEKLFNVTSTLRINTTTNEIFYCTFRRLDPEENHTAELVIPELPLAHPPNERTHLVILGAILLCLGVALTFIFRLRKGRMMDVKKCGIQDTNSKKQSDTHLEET
# measurement_notes: cell-based or functional assay
Documented Internalization (%), FACS, 2 µg/ml, 4 h across a set of binders
Express your answer in %, writing the number without its unit.

Worked examples, 3 binders total:
binder="69D10 (antibody, human IgG1, V domains shown) VH: QEQLEESGGGLVQPEGSLTLTCTASGFSFSGDWYMSWVRQAPGKGLEWIASIYSGSLNTYYATWAKGRFTVSLTSSTTVTLQMTSLTAADTATYFCARRNKNADYGHFDLWGPGTLVTVSS VL: YDMTQTPASVEVAVGGTVTIKCQASQSIGNALAWYQQKPGQPPKLLIYATSTLASGVPSRFKGSGSGTEFTLTISDLECGDAATYYCQQGWTVSSLDNAFGGGTEVVAK" unit_text=% reported=21.2
binder="28B3 (antibody, human IgG1, V domains shown) VH: QSVEESGGRLVTPGTPLTLSCTASGFSLSSYYMIWVRQAPGKGLEYIGYVYTGSGNTWYASWAKGRFAISKASTTVDLMITSPTTEDTATYFCASGADGVYDWGWDIWGPGTLVTVSL VL: DIVMTQTPASVEAAVGDTVTIKCQASQSIYSLLAWYQQKPGQRPKLLIAGASNLESGVPSRFSGSGSGTEYTLTISALECADAATYYCQNNYDSGRIYGLAFGGGTEVVVK" unit_text=% reported=6
binder="62E6 (antibody, human IgG1, V domains shown) VH: QEQLEESGGDLVKPEGSLTLTCTASGFSFSGDYYMSWVRQAPGKGLEWIASIYTGSLNIYYATWAKGRFTISLTSSTTVTLQMTSLTAADTATYFCARRNKNADYGHFDLWGPGTLVTVSS VL: YDMTQTPASVEVAVGGTVTIKCQASQSINDRLAWYQQKPRQPPKLLIYGASTLASGVPSRFKGSGSGTEFTLTISDLECVDAATYYCQQGWTVSSLDNAFGGGTEVVAK" unit_text=% reported=17.9

Q) Form field: reported Internalization (%), FACS, 2 µg/ml, 4 h of 27A2 (antibody, human IgG1, V domains shown) VH: QEQLEESGGGLVQPEGSLTLTCTASGFSFSSNHYMSWVRQAPGKGLEWIGSIGVGSGITDYASWAKGRFTISKASSTTLTLQMTTLTAADTAIYFCARWTSGGGGFGLWGPGTLVTVSS VL: QVLTQTSSPVSAAVGGTVTINCQSSQTIYSDYLFWYQQTPGQPPKLLIYQTSTLASGVPSRFKGSGSGTEFTLTISEIQCDDAATYYCQGYYSGYIWTFGGGTEVVVR
A) 9.7

Q) Form field: reported Internalization (%), FACS, 2 µg/ml, 4 h of 73C8 (antibody, human IgG1, V domains shown) VH: QEQLEESGGGLVQPEGSLTLTCTVSGFSFSGDYYMSWVRQAPGKGLEWVASIYTGSLNTYYATWAKGRFTISLTSSTTVTLQMTSLTAADTATYFCARRNKNADYGHFDLWGPGTLVTVSS VL: YDMTQTPASVEVAVGGTVTIKCQASQSINDRLAWYQQKPGQPPKLLIYAASTLASGVPSRFRGSGSGTDFTLTISDLECADAATYYCQQGWTVSSLDNAFGGGTEVVAM
A) 21.7

Every entry's value here was drawn from patent US20250171542A1.
